Cited source: patent US20250188040A1

ASSAYED TARGET: WRN C727 (Homo sapiens, UniProt Q14191)
Construct: endogenous in cells; host or cells: OCI-AML2
Sequence (Q14191 whole entry): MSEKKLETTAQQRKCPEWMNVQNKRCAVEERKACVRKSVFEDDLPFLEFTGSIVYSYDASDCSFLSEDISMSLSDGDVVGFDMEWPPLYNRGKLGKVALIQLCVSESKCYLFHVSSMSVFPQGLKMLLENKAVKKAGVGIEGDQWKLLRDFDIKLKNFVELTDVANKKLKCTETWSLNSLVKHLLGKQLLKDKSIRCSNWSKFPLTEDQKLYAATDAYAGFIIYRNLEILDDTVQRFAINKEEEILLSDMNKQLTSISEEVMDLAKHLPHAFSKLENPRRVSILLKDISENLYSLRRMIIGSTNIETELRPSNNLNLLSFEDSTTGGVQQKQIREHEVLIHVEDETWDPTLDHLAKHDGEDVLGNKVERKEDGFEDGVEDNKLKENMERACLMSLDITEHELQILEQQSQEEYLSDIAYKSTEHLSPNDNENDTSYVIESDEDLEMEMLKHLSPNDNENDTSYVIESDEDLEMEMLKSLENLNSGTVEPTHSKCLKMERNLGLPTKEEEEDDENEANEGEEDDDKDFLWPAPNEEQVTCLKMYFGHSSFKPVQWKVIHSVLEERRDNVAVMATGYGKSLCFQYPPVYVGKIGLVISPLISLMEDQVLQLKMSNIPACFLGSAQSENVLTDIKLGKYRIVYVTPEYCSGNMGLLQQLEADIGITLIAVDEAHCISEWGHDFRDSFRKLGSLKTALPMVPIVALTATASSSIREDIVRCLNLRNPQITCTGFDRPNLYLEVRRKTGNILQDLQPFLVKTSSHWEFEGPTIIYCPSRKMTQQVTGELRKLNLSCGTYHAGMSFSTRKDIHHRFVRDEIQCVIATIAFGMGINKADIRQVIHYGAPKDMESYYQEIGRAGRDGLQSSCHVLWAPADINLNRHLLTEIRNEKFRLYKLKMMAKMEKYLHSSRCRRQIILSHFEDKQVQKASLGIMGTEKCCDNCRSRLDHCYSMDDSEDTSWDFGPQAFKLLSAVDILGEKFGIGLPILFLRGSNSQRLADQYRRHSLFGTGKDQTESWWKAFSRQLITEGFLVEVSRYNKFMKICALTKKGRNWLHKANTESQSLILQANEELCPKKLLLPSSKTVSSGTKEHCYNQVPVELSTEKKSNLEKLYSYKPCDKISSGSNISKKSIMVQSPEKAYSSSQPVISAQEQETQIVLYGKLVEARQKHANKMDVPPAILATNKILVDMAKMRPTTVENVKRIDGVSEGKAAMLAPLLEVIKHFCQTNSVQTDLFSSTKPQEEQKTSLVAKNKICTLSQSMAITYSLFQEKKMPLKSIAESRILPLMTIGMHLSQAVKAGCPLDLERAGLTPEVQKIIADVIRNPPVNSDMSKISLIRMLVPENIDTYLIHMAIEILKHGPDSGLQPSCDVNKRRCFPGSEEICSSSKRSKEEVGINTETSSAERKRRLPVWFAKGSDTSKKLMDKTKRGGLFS
EXPERIMENT SUMMARY: Target engagement, in vitro (lysate), OCI-AML2
Type: binding
CONDITION CONTEXT: read-out: OCI-AML2 WRN C727 TE50 in vitro (lysate)
MEASUREMENT TYPE: IC50 (µM)
# value in µM; strip the unit string

C[C@@H](/C=C/S(C)(=O)=O)NC(=O)c1cnc(C2CCC2)nc1Oc1ccccc1 : 1.18

IC50 recorded for this compound, CC(C)(C)c1ncc(C(=O)N[C@H](/C=C/S(C)(=O)=O)C2CCOCC2)c(Oc2ccccc2)n1 , is 0.79

Quick note, IC50 for C[C@@H](/C=C/S(C)(=O)=O)NC(=O)c1cnc(N2C3CCC2CC3)nc1Oc1ccccc1 landed at 8.93

Record summary for CS(=O)(=O)/C=C/[C@@H](NC(=O)c1cnc(N2CC(F)C2)nc1Oc1ccccc1)C1CC1 : reported IC50 = 4.86

Entry C=C(C#N)CNC(=O)c1cnc(C(F)(F)C2CC2)nc1Oc1ccccc1 , IC50 reported as 8.28

Data point: C[C@@H](/C=C/S(C)(=O)=O)NC(=O)c1cnc(C2CC2)nc1OC1CC2(CC2)C1 ; IC50 = 50

get_value(item= C[C@@H](/C=C/S(C)(=O)=O)NC(=O)c1ccc(C2CCCC2)cc1Oc1ccccc1 , readout=IC50) returns 3.58

Lab note: CC(/C=C/S(C)(=O)=O)NC(=O)c1cc(F)c(C2=CCCC2)nc1Oc1ccccc1 (stereo in doubt) gave IC50 of 20

The compound listed as C[C@@H](/C=C/S(C)(=O)=O)NC(=O)c1cnc(CC2CC2)nc1Oc1ccccc1 shows IC50 equal to 5

Lab note: measured IC50 of C=C(C#N)CNC(=O)c1cnc(C2CC2)nc1Oc1ccccc1 was 25

Lab book: IC50 of CC(C)(C)c1ncc(C(=O)N[C@H](/C=C/S(C)(=O)=O)Cc2ccccc2)c(Oc2ccccc2)n1 (single isomer, unassigned) noted as 2.87
